Item-by-item account of inhibition
- Test: ASC/caspase-1 reporter retest in S. cerevisiae at one dose, specificity check for NALP1 project (AID 488857)
- Condition context: S. cerevisiae ASC/Caspase-1, beta-galactosidase luminescence, 24 h; at 10 µM; hits give high values
Hit rate of the full screen: of about 1,400 compounds, about 560 (40%) were called active. The set was probably picked from earlier hits. The list shows a part of the results.
A number alone suffices; assume %.

Measured inhibition of Brc1cccc(OCCCCN2CCCCC2)c1 : 53.8

Measured inhibition of COC(=O)c1cc(=O)n(-c2c(Cl)cc(C(F)(F)F)cc2Cl)[nH]1 : 34.8

Measured inhibition of O=C(NC(N1CCOCC1)C(Cl)(Cl)Cl)c1ccc(Br)cc1 (configuration not stated) : -14.2

Measured inhibition of CCOC(=O)CNC(c1ccccc1)c1cc(Br)ccc1NC(=O)CCN1CCOCC1 (configuration not stated) : 44.6

Measured inhibition of CCOC(=O)C1=Nc2ccccc2C1=[N+]=[N-] : 46

Measured inhibition of Cc1cc(N2C(=O)C=CC2=O)c([N+](=O)[O-])cc1C : 3

Measured inhibition of Cc1cc(Br)ccc1OCCCCN1CCC(C)CC1 : 60.4

Measured inhibition of CCNc1ccc(Br)cc(C(=O)/C=C/c2c(Cl)cccc2Cl)c1=O : 42.6

Measured inhibition of Cc1ccc(OCCCCN(C)Cc2ccccc2)c(Br)c1 : 54.8

Measured inhibition of Cc1ccc(NC2(C#N)C(=O)Nc3ccccc32)cc1 (configuration not stated) : 38.2

Measured inhibition of CCCOc1ccc(C(=O)C(CN2CCCC2)c2ccccc2)cc1 (configuration not stated) : 48.7

Measured inhibition of Brc1cccc(OCCN2CCCCC2)c1 : 49.1

====

- Test: ASC/caspase-1 reporter retest in S. cerevisiae at one dose, specificity check for NALP1 project (AID 488857)
- Condition context: S. cerevisiae ASC/Caspase-1, beta-galactosidase luminescence, 24 h; at 10 µM; hits give high values
Screen size: about 1,400 compounds; about 560 (40%) were called active. The set was probably picked from earlier hits. This is one part of the list.
Rule: inhibition of 30% or more gives Fulfilled; anything lower gives Not fulfilled.

These recorded examples may help you get a feel for the data.
Cc1[nH]c2ccccc2c1C(=O)CSc1nc2ncc(Cl)cc2[nH]1
Fulfilled
COc1ccccc1CN(Cc1nc2ccccc2c(=O)[nH]1)C(=O)Nc1ccccc1
Fulfilled
c1ccc(-c2noc(-c3ccccc3-c3ccccc3)n2)cc1
Not fulfilled
CN(C)CCN(Cc1ccccc1)c1nccc(N(C)C)c1C#N
Not fulfilled
CCc1ccc(NCc2nc(-c3ccccc3)no2)cc1
Fulfilled

Test whether the compound CN(C)/C=N/n1cnc2ccccc2c1=O records inhibition of 30% or higher. Fulfilled

Test whether the compound Oc1c(Br)cc(Br)cc1C=Nc1cccnc1 records inhibition of 30% or higher. Fulfilled

Test whether the compound Cc1sc2nc(SCC(=O)NCc3ccco3)n(Cc3ccccc3)c(=O)c2c1C records inhibition of 30% or higher. Not fulfilled

Test whether the compound O=C(Nc1cccc(N=Cc2cc(Br)cc(Br)c2O)c1)c1ccco1 records inhibition of 30% or higher. Fulfilled

====

- Test: ASC/caspase-1 reporter retest in S. cerevisiae at one dose, specificity check for NALP1 project (AID 488857)
- Condition context: S. cerevisiae ASC/Caspase-1, beta-galactosidase luminescence, 24 h; at 10 µM; hits give high values
Screen size: about 1,400 compounds; about 560 (40%) were called active. So high a share suggests a set chosen from earlier hits. This is one part of the list.
Rule: inhibition of 30% or more gives 1 (yes); anything lower gives 0 (no).

Test whether the compound COc1ccc(C(CCNCc2ccccc2F)c2ccc(F)cc2)cc1 (centres undefined) records inhibition of 30% or higher. 1 (yes)

Test whether the compound Cc1ccc2nc(-c3ccc(NC(=O)CN(c4ccccc4C)S(C)(=O)=O)cc3)sc2c1 records inhibition of 30% or higher. 1 (yes)

Test whether the compound CCc1cccc(C)c1NC(=S)NCCc1c(C)[nH]c2ccc(C)cc12 records inhibition of 30% or higher. 1 (yes)

Test whether the compound Cn1c(=O)c([N+](=O)[O-])c(-n2cnc3ccccc32)c2ccccc21 records inhibition of 30% or higher. 0 (no)
